Quick list: Percent Effect per entry.
System Under Test: Tyrosyl-tRNA synthetase, putative (Trypanosoma cruzi (strain CL Brener)) (UniProt Q4DSP6)
Sequence (Q4DSP6 as listed by the source): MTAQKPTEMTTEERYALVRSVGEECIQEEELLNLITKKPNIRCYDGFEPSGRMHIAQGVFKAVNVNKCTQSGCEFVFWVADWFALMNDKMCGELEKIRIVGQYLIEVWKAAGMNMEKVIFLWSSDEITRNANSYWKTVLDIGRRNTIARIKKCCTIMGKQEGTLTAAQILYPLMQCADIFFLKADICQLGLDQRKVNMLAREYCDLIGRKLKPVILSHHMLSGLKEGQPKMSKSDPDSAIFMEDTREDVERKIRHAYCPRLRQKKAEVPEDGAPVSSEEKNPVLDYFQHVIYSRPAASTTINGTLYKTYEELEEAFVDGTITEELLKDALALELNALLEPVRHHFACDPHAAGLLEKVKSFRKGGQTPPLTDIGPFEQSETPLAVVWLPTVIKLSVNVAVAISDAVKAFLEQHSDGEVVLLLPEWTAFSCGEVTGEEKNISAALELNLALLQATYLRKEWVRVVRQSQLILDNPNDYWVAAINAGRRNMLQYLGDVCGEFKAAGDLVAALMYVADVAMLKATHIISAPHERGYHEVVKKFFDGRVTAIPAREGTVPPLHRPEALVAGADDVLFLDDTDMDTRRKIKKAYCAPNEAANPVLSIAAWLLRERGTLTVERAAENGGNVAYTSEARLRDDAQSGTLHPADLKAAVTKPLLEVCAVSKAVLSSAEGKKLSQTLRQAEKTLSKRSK
Method: Trypanosoma cruzi tyrosyl tRNA synthetase (TcYRS) SOP
Format: functional
Set-up: scale not given: direction of the effect not stated beside the values
Condition Details: 30 µM
The figure you give is taken to be in %; do not add the unit.

Compound	System Under Test	Reported Value
Cc1nc([C@@H]2C[C@@H]3CCN(C(=O)c4ccnnc4)C[C@H]3O2)sc1C	Tyrosyl-tRNA synthetase, putative (Trypanosoma cruzi (strain CL Brener)) (UniProt Q4DSP6)	16.7
CCS(=O)(=O)N1C[C@@H](OCc2cccnc2)[C@H]2OCCC[C@H]21	Tyrosyl-tRNA synthetase, putative (Trypanosoma cruzi (strain CL Brener)) (UniProt Q4DSP6)	7.69
NC(=O)c1ccc2c(c1)nc1n2CCN(Cc2ccccc2)C1	Tyrosyl-tRNA synthetase, putative (Trypanosoma cruzi (strain CL Brener)) (UniProt Q4DSP6)	10.4

Indicate its recorded Percent Effect; the compound in question is `Cc1cncc(C(=O)N2Cc3ccccc3C3(CCN(C)CC3)C2)c1`
-15.4

Read off the recorded Percent Effect for COCCN(C)CCN1CC2(CCN(C3CCCOC3)CC2)OC1=O (stereo unspecified)
18.5

State its Percent Effect: `O=C(CSc1ncccn1)N1C[C@H]2CC[C@@H]1CN(Cc1ccncc1)C2`
7.5

The measurements presented in this section are drawn from ChEMBL document CHEMBL3988442.
